Below is a list of entries, each paired with its recorded GI50 value.
test system: HOP-18; experiment: NCI tumour cell line growth inhibition, 48 h
Active and inactive are the calls of the source. Rule as the data show it: active = GI50 up to about 1.1 µM and inactive = higher.

Incoming: Hello, I am looking for reported GI50 with HOP-18 for O=C(NC1CCCCC1)NS(=O)(=O)c1ccc2c(c1)CCC2 [GLYHEXAMIDE] . Could you help?
Outgoing: > 100 µM (inactive)

Incoming: Lab note: need GI50 with HOP-18 for entry CCOC(=O)NNC(=O)NC12CC3CC(CC(C3)C1)C2 , please look it up.
Outgoing: > 100 µM (inactive)

----------
Attribute: GI50
test system: RXF 393; test: NCI tumour cell line growth inhibition, 48 h
The source made the active and inactive calls. No stated cut-off is given here; in the data, active = GI50 up to about 1.1 µM and inactive = higher.

The cases that follow already have their GI50 on record.
>>> endpoint_result("O=C(N/N=C\\C=C\\c1ccc([N+](=O)[O-])o1)C(=O)N/N=C\\C=C\\c1ccc([N+](=O)[O-])o1")
"> 100 µM (inactive)"
>>> endpoint_result("CC(=O)C1CC[C@@H]2[C@H](CC[C@]3(C)[C@@H](O)CC[C@@H]23)[C@H]1C(=O)O (some centres undefined)")
"> 100 µM (inactive)"
>>> endpoint_result("CC(Nc1cc(=O)n(C)c(=O)[nH]1)c1ccccc1 (centres undefined)")
"> 100 µM (inactive)"
>>> endpoint_result("COc1cc2noc(-c3ccccc3)c2cc1OC")
"23.8 µM (inactive)"
>>> endpoint_result("Nc1ccc(Cc2ccc(/N=C\\c3ccc(OCc4cccc(COc5ccc(/C=N\\c6ccc(Cc7ccc(N)cc7)cc6)cc5)n4)cc3)cc2)cc1")
"23.1 µM (inactive)"
>>> endpoint_result("NCCSCC(N)C(=O)O (centres undefined)")
"> 497 µM (inactive)"

Incoming: Reported GI50, compound O=c1[nH]c2cc([N+](=O)[O-])ccc2nc1/C(=N/Nc1ccccc1)C(O)c1ccccc1Cl (centres undefined) : ____
Outgoing: > 100 µM (inactive)

Incoming: So what's the measured GI50 for this one? O=S(O)CCCSSCCCCSSCCCS(=O)O
Outgoing: > 100 µM (inactive)

Incoming: Can you share its GI50? I mean this compound: CC[C@H](C)[C@H](NC(=O)N(CCC#N)CCN(CCN(C(=O)N[C@@H](Cc1ccccc1)C(=O)OC)c1ccccc1)C(=O)N[C@H](C(=O)OC)C(C)C)C(=O)OC
Outgoing: 14.2 µM (inactive)
